molecular target: PIK3CD (Human) (UniProt O00329); test: Enzyme Assay
Sequence (O00329 whole entry, looked up): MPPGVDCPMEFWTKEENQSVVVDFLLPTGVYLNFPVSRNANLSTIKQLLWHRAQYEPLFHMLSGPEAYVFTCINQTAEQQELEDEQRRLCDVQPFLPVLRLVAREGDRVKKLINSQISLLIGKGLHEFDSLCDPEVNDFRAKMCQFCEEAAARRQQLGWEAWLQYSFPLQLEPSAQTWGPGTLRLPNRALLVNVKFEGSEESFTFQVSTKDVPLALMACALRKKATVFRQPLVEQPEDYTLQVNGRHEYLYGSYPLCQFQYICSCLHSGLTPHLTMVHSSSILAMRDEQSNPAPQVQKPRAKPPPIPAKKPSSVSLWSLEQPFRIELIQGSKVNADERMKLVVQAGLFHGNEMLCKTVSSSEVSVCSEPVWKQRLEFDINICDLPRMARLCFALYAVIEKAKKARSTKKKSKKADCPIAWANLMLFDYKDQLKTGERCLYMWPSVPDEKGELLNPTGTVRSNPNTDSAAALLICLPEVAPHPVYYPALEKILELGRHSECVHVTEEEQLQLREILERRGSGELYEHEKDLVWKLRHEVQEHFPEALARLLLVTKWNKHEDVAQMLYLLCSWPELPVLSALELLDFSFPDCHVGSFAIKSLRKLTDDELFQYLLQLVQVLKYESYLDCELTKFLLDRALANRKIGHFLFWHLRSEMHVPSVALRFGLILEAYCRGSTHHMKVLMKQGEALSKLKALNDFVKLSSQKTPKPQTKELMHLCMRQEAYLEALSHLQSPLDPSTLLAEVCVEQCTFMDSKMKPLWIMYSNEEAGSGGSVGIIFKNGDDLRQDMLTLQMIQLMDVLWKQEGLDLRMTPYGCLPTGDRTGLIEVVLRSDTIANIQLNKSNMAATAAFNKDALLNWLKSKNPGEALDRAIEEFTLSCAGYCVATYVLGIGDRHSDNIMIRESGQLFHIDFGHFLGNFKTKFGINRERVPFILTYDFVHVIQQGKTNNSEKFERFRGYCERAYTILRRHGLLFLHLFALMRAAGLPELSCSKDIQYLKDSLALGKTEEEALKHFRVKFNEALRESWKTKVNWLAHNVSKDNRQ
pIC50: −log10 of the molar value.
Readings of pIC50 for the listed compounds

{"compound": "C[C@H](NC(=O)c1c(N)nn2cccnc12)c1cc2cccc(C#CC3CCNCC3)c2c(=O)n1-c1ccccc1", "system_tested": "PIK3CD (Human) (UniProt O00329)", "result": "5.00 to 5.30"}
{"compound": "Cc1cnc(C(=O)N[C@@H](C)c2cc3cccc(C#Cc4cnn(C)c4)c3c(=O)n2-c2ccccc2)c(N)n1", "system_tested": "PIK3CD (Human) (UniProt O00329)", "result": "5.00 to 5.30"}
{"compound": "C[C@H](NC(=O)c1c(N)nn2cccnc12)c1cc2cccc(C#Cc3cnn(C)c3)c2c(=O)n1-c1ccc(F)cc1", "system_tested": "PIK3CD (Human) (UniProt O00329)", "result": "5.00 to 5.30"}

Provide pIC50 value for the following compound: C#Cc1cccc2nc([C@H](C)NC(=O)c3c(N)nn4cccnc34)n(-c3ccccc3)c(=O)c12
5.30 to 6.00

Provide pIC50 value for the following compound: C[C@H](NC(=O)c1c(N)nn2cccnc12)c1cc2cccc(CC(=O)c3cnn(C)c3)c2c(=O)n1-c1ccccc1
5.00 to 5.30

Provide pIC50 value for the following compound: C[C@H](NC(=O)c1c(N)nn2cccnc12)c1cc2cccc(C#Cc3ccccn3)c2c(=O)n1-c1ccccc1
5.00 to 5.30

----------
target: PIK3CD (Human) (UniProt O00329); assay: Enzyme Assay
pIC50: −log10 of the molar value.
Readings of pIC50 for the listed compounds

{"structure_string": "C[C@H](NC(=O)c1c(N)nn2cccnc12)c1cc2cccc(C#CC(F)(F)F)c2c(=O)n1-c1ccccc1", "pIC50": "5.00 to 5.30"}
{"structure_string": "Cc1nn(C)cc1C#Cc1cccc2cc([C@H](C)NC(=O)c3c(N)nn4cccnc34)n(-c3ccccc3)c(=O)c12", "pIC50": "5.00 to 5.30"}
{"structure_string": "C[C@H](NC(=O)c1c(N)nn2cccnc12)c1cc2cccc(C#CC3CC3)c2c(=O)n1-c1ccccc1", "pIC50": "5.30 to 6.00"}

Now consider a different compound.
Tell me pIC50 of C[C@H](NC(=O)c1c(N)nn2cccnc12)c1cc2cccc(C#Cc3ccncc3)c2c(=O)n1-c1ccccc1 when tested on PIK3CD (Human) (UniProt O00329).
5.00 to 5.30

----------
Readings of pIC50 for the listed compounds
biological target: PIK3CD (Human) (UniProt O00329); assay: Enzyme Assay
pIC50: −log10 of the molar value.

Known pIC50 results, listed for orientation:
{"structure_string": "C[C@H](NC(=O)c1c(N)nn2cccnc12)c1cc2cccc(N)c2c(=O)n1-c1ccccc1", "pIC50": "5.30 to 6.00"}
{"structure_string": "C[C@H](NC(=O)c1c(N)nn2cccnc12)c1cc2cccc(C#CCO)c2c(=O)n1-c1ccccc1", "pIC50": "6.00 to 6.30"}
{"structure_string": "Cn1cc(C#Cc2cccc3cc(CNC(=O)c4c(N)nn5cccnc45)n(-c4ccccc4)c(=O)c23)cn1", "pIC50": "5.00 to 5.30"}

Now consider a different compound.
Provide pIC50 value for the following compound: C[C@H](NC(=O)c1c(N)nn2cccnc12)c1cc2cccc(C#CCN3CCCC3=O)c2c(=O)n1-c1ccccc1
6.30 to 9.00

----------
molecular target: PIK3CD (Human); assay: Cell-Based Assay; conditions: raji
reported_property: IC50

Known IC50 results, listed for orientation:
{"structure_string": "C[C@H](NC(=O)c1c(N)nn2cccnc12)c1cc2cccc(C#CCN3CCCC3=O)c2c(=O)n1-c1ccccc1", "result": "1 to 100 nM"}
{"structure_string": "C[C@H](NC(=O)c1c(N)nn2cccnc12)c1cc2cccc(C#Cc3cncn3C)c2c(=O)n1-c1ccccc1", "result": "500 to 1000 nM"}
{"structure_string": "Cc1c(C#Cc2cccc3nc([C@H](C)NC(=O)c4c(N)nn5cccnc45)n(-c4ccccc4)c(=O)c23)cnn1C", "result": "100 to 500 nM"}

Now consider a different compound.
Provide IC50 value for the following compound: COCC#Cc1cccc2cc([C@H](C)NC(=O)c3c(N)nn4cccnc34)n(-c3ccccc3)c(=O)c12
100 to 500 nM

----------
Hi! I'm sharing some IC50 results obtained with PIK3CG (human) (UniProt P48736).
Sequence (P48736 whole entry, looked up): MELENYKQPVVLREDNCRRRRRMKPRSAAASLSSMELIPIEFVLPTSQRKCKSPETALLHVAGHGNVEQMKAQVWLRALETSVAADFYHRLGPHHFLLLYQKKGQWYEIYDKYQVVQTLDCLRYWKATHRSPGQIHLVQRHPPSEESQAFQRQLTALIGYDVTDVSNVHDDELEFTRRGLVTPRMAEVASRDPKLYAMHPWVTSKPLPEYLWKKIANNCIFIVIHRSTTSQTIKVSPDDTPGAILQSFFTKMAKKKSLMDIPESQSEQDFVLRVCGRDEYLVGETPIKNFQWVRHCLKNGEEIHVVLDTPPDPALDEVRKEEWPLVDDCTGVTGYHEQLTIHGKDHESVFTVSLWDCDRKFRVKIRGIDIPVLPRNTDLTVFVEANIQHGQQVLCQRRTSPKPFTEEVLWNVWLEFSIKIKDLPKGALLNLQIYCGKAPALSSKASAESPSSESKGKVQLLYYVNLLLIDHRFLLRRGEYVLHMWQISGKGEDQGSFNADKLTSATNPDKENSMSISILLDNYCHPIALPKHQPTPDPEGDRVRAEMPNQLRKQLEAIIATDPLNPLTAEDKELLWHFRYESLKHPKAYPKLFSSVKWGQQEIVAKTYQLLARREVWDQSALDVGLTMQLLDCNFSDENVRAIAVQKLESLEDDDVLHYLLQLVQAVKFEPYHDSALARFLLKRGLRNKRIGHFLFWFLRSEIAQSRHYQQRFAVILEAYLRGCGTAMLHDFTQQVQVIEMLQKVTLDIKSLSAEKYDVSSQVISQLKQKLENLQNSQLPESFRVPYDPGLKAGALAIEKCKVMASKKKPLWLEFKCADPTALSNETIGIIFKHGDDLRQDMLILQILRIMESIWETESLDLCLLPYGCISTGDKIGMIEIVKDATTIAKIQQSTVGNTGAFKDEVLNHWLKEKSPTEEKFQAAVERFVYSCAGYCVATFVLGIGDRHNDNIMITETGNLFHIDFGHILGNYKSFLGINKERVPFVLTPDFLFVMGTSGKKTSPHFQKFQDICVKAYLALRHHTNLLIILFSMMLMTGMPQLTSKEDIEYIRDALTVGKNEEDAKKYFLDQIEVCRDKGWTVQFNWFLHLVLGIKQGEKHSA

Known IC50 results, listed for orientation:
{"compound": "Cc1c(C#Cc2cccc3cc([C@H](C)NC(=O)c4c(N)nn5cccnc45)n(-c4ccccc4)c(=O)c23)cnn1C", "result": "100 to 500 nM"}
{"compound": "C[C@H](NC(=O)c1c(N)nn2cccnc12)c1cc2cccc(C#CC3(O)CN4CCC3CC4)c2c(=O)n1-c1ccccc1 (stereo partly specified)", "result": "500 to 1000 nM"}
{"compound": "Cc1ccn2nc(N)c(C(=O)N[C@@H](C)c3cc4cccc(C#Cc5cnn(C)c5)c4c(=O)n3-c3ccccc3)c2n1", "result": "1 to 100 nM"}
{"compound": "C[C@H](NC(=O)c1c(N)nn2cccnc12)c1cc2cccc(C#CC(C)(C)O)c2c(=O)n1-c1ccccc1", "result": "100 to 500 nM"}
{"compound": "CNS(=O)(=O)CCn1c([C@H](C)NC(=O)c2c(N)nn3cccnc23)cc2cccc(C#Cc3cnn(C)c3)c2c1=O", "result": "1 to 100 nM"}
{"compound": "C[C@H](NC(=O)c1c(N)nn2cccnc12)c1cc2ccc3ccccc3c2c(=O)n1-c1ccccc1", "result": "500 to 1000 nM"}

Tell me IC50 of C[C@H](O)C#Cc1cccc2cc([C@H](C)NC(=O)c3c(N)nn4cccnc34)n(-c3ccccc3)c(=O)c12 when tested on PIK3CG (human) (UniProt P48736).
1 to 100 nM

----------
Hi! I'm sharing some pIC50 results obtained with PIK3CG (human).
pIC50: −log10 of the molar value.

Known pIC50 results, listed for orientation:
{"structure_string": "C[C@H](NC(=O)c1c(N)nn2cccnc12)c1cc2cccc(C#Cc3ccn(C)n3)c2c(=O)n1-c1ccccc1", "pIC50": "6.30 to 7.00"}
{"structure_string": "COCC#Cc1cccc2cc([C@H](C)NC(=O)c3c(N)nn4cccnc34)n(-c3ccccc3)c(=O)c12", "pIC50": "7.00 to 9.00"}
{"structure_string": "C#Cc1cccc2nc([C@H](C)NC(=O)c3c(N)nn4cccnc34)n(-c3ccc(F)cc3)c(=O)c12", "pIC50": "7.00 to 9.00"}

Provide pIC50 value for the following compound: C[C@H](NC(=O)c1c(N)nn2cccnc12)c1cc2cccc(C#Cc3ccnn3C)c2c(=O)n1-c1ccccc1
6.30 to 7.00

Provide pIC50 value for the following compound: C[C@H](NC(=O)c1c(N)nn2cccnc12)c1cc2cccc(C#Cc3cncn3C)c2c(=O)n1-c1ccccc1
6.30 to 7.00

Provide pIC50 value for the following compound: COc1ccc(C#Cc2cccc3cc([C@H](C)NC(=O)c4c(N)nn5cccnc45)n(-c4ccccc4)c(=O)c23)cn1
6.30 to 7.00

Provide pIC50 value for the following compound: Cc1nn(C)c(C)c1C#Cc1cccc2cc([C@H](C)NC(=O)c3c(N)nn4cccnc34)n(-c3ccccc3)c(=O)c12
5.30 to 6.00

Provide pIC50 value for the following compound: CC(=O)N1CCC(C#Cc2cccc3cc([C@H](C)NC(=O)c4c(N)nn5cccnc45)n(-c4ccccc4)c(=O)c23)CC1
6.30 to 7.00

Provide pIC50 value for the following compound: Cc1ccc(C#Cc2cccc3cc([C@H](C)NC(=O)c4c(N)nn5cccnc45)n(-c4ccccc4)c(=O)c23)cn1
7.00 to 9.00

Provide pIC50 value for the following compound: C[C@H](NC(=O)c1c(N)nn2cccnc12)c1cc2cccc(C#CC=O)c2c(=O)n1-c1ccccc1
7.00 to 9.00

Provide pIC50 value for the following compound: C[C@H](NC(=O)c1c(N)nn2cccnc12)c1cc2cccc(C#Cc3cnn(C)c3)c2c(=O)n1-c1cccc(F)c1
7.00 to 9.00

Provide pIC50 value for the following compound: C#Cc1cccc2nc([C@H](C)NC(=O)c3c(N)nn4cccnc34)n(-c3ccc(F)c(F)c3)c(=O)c12
6.30 to 7.00

Provide pIC50 value for the following compound: C[C@H](NC(=O)c1nccnc1N)c1cc2cccc(C#Cc3cnn(C)c3)c2c(=O)n1-c1ccccc1
6.30 to 7.00

Provide pIC50 value for the following compound: CC[C@H](NC(=O)c1c(N)nn2cccnc12)c1cc2cccc(C#Cc3cnn(C)c3)c2c(=O)n1-c1ccccc1
7.00 to 9.00

Provide pIC50 value for the following compound: COc1cnc(C(=O)N[C@@H](C)c2cc3cccc(C#Cc4cnn(C)c4)c3c(=O)n2-c2ccccc2)c(N)n1
< 5.30

Provide pIC50 value for the following compound: CC(C)C#Cc1cccc2nc([C@H](C)NC(=O)c3c(N)nn4cccnc34)n(-c3ccccc3)c(=O)c12
6.00 to 6.30
